The measurements presented in this section are drawn from ChEMBL document CHEMBL1201862.

STUDY TARGET: Endoribonuclease toxin MazF (Escherichia coli K-12)
Sequence (P0AE70 whole entry): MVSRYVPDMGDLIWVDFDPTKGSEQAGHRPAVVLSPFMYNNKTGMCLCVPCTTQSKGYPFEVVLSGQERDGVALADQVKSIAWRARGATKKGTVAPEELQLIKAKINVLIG
MEASUREMENT PROTOCOL: MazF toxin RNase activators, dose response, biochemical, fluorescence, single-stranded RNA substrate, uHTS hits (AID 588481)
Type: functional
The source made the active and inactive calls.
READOUT KIND: EC50

In the examples that follow, each entry is paired with its recorded EC50.
Nc1c(C(=O)c2ccc(Cl)cc2)sc2nc3c(cc12)CCC3 > 99 µM (inactive)
COc1ccc2nc3cc(Cl)ccc3c(C#N)c2c1 > 99 µM (inactive)
Cc1sc(NC(=O)COc2cccc(-n3cnnn3)c2)c(C#N)c1C > 99 µM (inactive)
CCOC(=O)CSc1nc2cc(C)ccc2cc1C#N > 99 µM (inactive)

Request: // EC50 lookup, key: Cc1cccc(-n2c(/C=C/c3ccc([N+](=O)[O-])o3)nc3ccccc3c2=O)c1
Response: > 99 µM (inactive)

Request: Look up EC50 for this compound: Cc1cccc(-n2[nH]c(C)c(/C=N/c3ccc4[nH]c(O)nc4c3)c2=O)c1
Response: 36 µM (inactive)

---

STUDY TARGET: Carboxy-terminal domain RNA polymerase II polypeptide A small phosphatase 1 (Homo sapiens, UniProt Q9GZU7)
Sequence (Q9GZU7 whole entry): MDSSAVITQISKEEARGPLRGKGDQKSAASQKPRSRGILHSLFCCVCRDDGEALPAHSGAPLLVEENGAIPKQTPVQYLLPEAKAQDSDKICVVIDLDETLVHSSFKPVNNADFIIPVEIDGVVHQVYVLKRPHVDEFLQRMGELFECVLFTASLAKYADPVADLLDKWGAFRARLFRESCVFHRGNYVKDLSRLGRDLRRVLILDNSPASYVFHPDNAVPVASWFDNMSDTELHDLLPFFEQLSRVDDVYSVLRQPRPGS
MEASUREMENT PROTOCOL: inhibitors of CTDSP1, concentration-response testing, biochemical assay, absorbance-based, actives from ultra-high-throughput screening (AID 540297)
Format: functional
Calls of active or inactive are those of the source.
In this exercise, the only acceptable responses are active, inactive

Would you please look over these solved cases?
COMPOUND	CLASS
CSc1cccc(N2CC(C(=O)Nc3cccc(S(=O)(=O)N4CCCC4)c3)CC2=O)c1 (stereo not given)	active
O=C(O)c1cc(-c2ccc(/C=C3\NC(=O)N(c4ccccc4)C3=O)o2)ccc1Cl	active
CC(=O)Nc1ccc(S(=O)(=O)NCCC(=O)OCC(=O)N2CCN(C(=O)c3ccco3)CC2)cc1	active

Request: Each compound tested received a call. Report the one for COc1ccc(C(=O)N/N=C/c2ccc(OC(=O)c3cccc4ccccc34)c([N+](=O)[O-])c2)cc1 .
Response: active

Request: Dear all, I need the recorded test outcome for CN(/N=C/c1cccnc1)c1cnn(-c2ccc(F)c(Cl)c2)c(=O)c1Cl , thank you.
Response: inactive

---

STUDY TARGET: Ubiquitin-conjugating enzyme E2 N (Homo sapiens);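 further: Dose-response confirmation in a TR-FRET assay detecting UBC13-driven polyubiquitin chain formation, inhibition measured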
Sequence (P61088 whole entry): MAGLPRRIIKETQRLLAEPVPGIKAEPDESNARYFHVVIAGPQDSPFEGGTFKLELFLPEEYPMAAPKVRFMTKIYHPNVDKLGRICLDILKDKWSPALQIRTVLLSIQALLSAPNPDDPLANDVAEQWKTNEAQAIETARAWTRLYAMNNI
Type: functional
The source made the active and inactive calls.
READOUT KIND: IC50

Some compounds with recorded IC50:
COMPOUND	READOUT KIND	ENDPOINT VALUE
COc1ccc(/C=N/NC(=O)Cc2csc(Nc3cccc(C(F)(F)F)c3)n2)c(OC)c1	IC50	14 µM (active)
O=C(NCCN1CCN(c2ccccc2)CC1)c1ccc2c(c1)[nH]c(=S)n1c3ccccc3nc21	IC50	0.829 µM (active)
COc1cccc(N(C(=O)c2snc(C(N)=O)c2N)C(C(=O)NCC2CCCO2)c2c[nH]c3ccccc23)c1 (stereo not given)	IC50	> 20 µM (inactive)
Oc1[nH]c2ccc(Br)cc2c1N=NC(S)=NCC1CCCO1 (stereo not given)	IC50	> 20 µM (inactive)

Request: Find the recorded IC50 belonging to COc1ccc(COCC(O)CN2CCC(CN3C(=O)c4cccc5cccc(c45)C3=O)CC2)cc1OC (stereo not given) and report it.
Response: > 20 µM (inactive)
